Tested on: c-Abl (mouse)
ASSAY EXPLANATION: phosphorylation enrichment, bacterial display (enrichment ratio); higher = better substrate or ligand; peptides without Tyr show the background;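 note: 11-residue human phosphosite peptides and single-mutation variants displayed on the E. coli surface, counted by deep sequencing, each peptide's frequency after selection divided by its frequency in the unselected input library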;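 note: frequency after pTyr selection over input frequency; kinase dosed for 20-30% of maximal phosphorylation in three min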
For each record, write down the corresponding phosphorylation enrichment.
Number only, no unit.

Can you look up the measured phosphorylation enrichment of ATHSGYRLNDY [CLDN14_Y233] for me?
0.556

Can you look up the measured phosphorylation enrichment of GDFSRYDEGSG [RECQL5_Y484] for me?
0.799

Can you look up the measured phosphorylation enrichment of VHKKGYNKLNQ [ZNF676_Y98_E96K] for me?
0.645

Can you look up the measured phosphorylation enrichment of IDDNQYAFLKA [HNF4A_Y286_E285Q_YF] for me?
1.02

Can you look up the measured phosphorylation enrichment of AKRKGYDMQVD [NEB_Y2770_R2773Q] for me?
0.372

Can you look up the measured phosphorylation enrichment of ITVPAYFNDLQ [HSPA9_Y196_S200L] for me?
0.766

Can you look up the measured phosphorylation enrichment of VSNFNYFFHRE [KCNA1_Y413_YF] for me?
0.831

Can you look up the measured phosphorylation enrichment of EERNPYYSSAR [MCCC2_Y520_G517R] for me?
0.591

Can you look up the measured phosphorylation enrichment of IFRASYVPFAA [RBM47_Y541_G538R_YF] for me?
0.527

Can you look up the measured phosphorylation enrichment of PEACDYGLGGG [GSTO1_Y239] for me?
1.28

Can you look up the measured phosphorylation enrichment of EKQARYEIVVE [CDH5_Y223] for me?
0.613

Can you look up the measured phosphorylation enrichment of RRRLIYRCQVG [NR2E3_Y81] for me?
0.697

Can you look up the measured phosphorylation enrichment of NFFEFYVDDPP [GCHFR_Y48_YF] for me?
0.836

Can you look up the measured phosphorylation enrichment of SIGLGYHKDLQ [NF1_Y1169] for me?
0.487

Can you look up the measured phosphorylation enrichment of PQGVRYIYTID [DCX_Y103] for me?
1.37

Can you look up the measured phosphorylation enrichment of PEVSGYCHFAD [TG_Y234_C237Y_YF] for me?
0.937

Can you look up the measured phosphorylation enrichment of VFPIDYFFPPQ [AR_Y552_L548F_YF] for me?
1.03

Can you look up the measured phosphorylation enrichment of RTEAQYRFIFM [PTPN11_Y511_Q506R_YF] for me?
0.765

Can you look up the measured phosphorylation enrichment of KNKNRYKNILP [PTPN11_Y279] for me?
0.877

Can you look up the measured phosphorylation enrichment of TLSGIYQFIIA [FOXL2_Y81_YF] for me?
2.71

Can you look up the measured phosphorylation enrichment of VDDEIYYFRKP [PBRM1_Y1289] for me?
7.44

Can you look up the measured phosphorylation enrichment of FLAVGYHKPFI [IDS_Y225_H229Y_YF] for me?
3.35

Can you look up the measured phosphorylation enrichment of QPGDICHQTWA [GBA_Y244_Y244C] for me?
0.741

Can you look up the measured phosphorylation enrichment of MSRDVYSIDYY [NTRK2_Y702_T704I] for me?
0.538

Can you look up the measured phosphorylation enrichment of LDLPGYCLLRE [CCDC116_Y291_P293L] for me?
1.65

Can you look up the measured phosphorylation enrichment of VAFLFYKSIGP [ADGRL4_Y302_V300L_YF] for me?
1.12

Can you look up the measured phosphorylation enrichment of NTYEKYWPFYQ [GATM_Y103] for me?
1.17

Can you look up the measured phosphorylation enrichment of QLQTTYPSSDN [MAX_Y115_N114T] for me?
0.566

Can you look up the measured phosphorylation enrichment of "LAVNPYGPPDL" for me?
1.32

---

Tested on: c-Src
ASSAY EXPLANATION: phosphorylation enrichment, bacterial display (enrichment ratio); higher = better substrate or ligand; peptides without Tyr show the background
Assign Fulfilled to entries whose phosphorylation enrichment meets or exceeds 0.6; assign Not fulfilled to the rest.

Check this sequence for phosphorylation enrichment at or above 0.6: NYYDTYIKTCL [IQGAP2_Y1445]
Fulfilled

Check this sequence for phosphorylation enrichment at or above 0.6: QPGDICHQTWA [GBA_Y244_Y244C]
Not fulfilled

Check this sequence for phosphorylation enrichment at or above 0.6: FAFQLYDLDPD [CHP2_Y123_R127P_YF]
Fulfilled

Check this sequence for phosphorylation enrichment at or above 0.6: IALNSCHSRNC [IFNGR1_Y397_Y397C]
Not fulfilled

Check this sequence for phosphorylation enrichment at or above 0.6: SQQTYYRVSNM [ABCD1_Y181]
Fulfilled

Check this sequence for phosphorylation enrichment at or above 0.6: STEVIYQPRRK [STK11_Y36]
Fulfilled

Check this sequence for phosphorylation enrichment at or above 0.6: SEHLTYLEFKS [RASGRP1_Y215]
Fulfilled

Check this sequence for phosphorylation enrichment at or above 0.6: PPAPRYHHLAV [LZTR1_Y119_S122L]
Not fulfilled

Check this sequence for phosphorylation enrichment at or above 0.6: LSDVIYVILRK [PMP22_Y153_G150D]
Not fulfilled

Check this sequence for phosphorylation enrichment at or above 0.6: SIKDKYLTALY [KCNH2_Y611_V612L]
Fulfilled

Check this sequence for phosphorylation enrichment at or above 0.6: DGQSVYKLTDF [TBK1_Y153]
Fulfilled

Check this sequence for phosphorylation enrichment at or above 0.6: GIVKAYYVHAR [AIPL1_Y267_R270H]
Not fulfilled

Check this sequence for phosphorylation enrichment at or above 0.6: PEAALYGRFTI [FYN_Y440]
Fulfilled

Check this sequence for phosphorylation enrichment at or above 0.6: YEREQYADRAR [RBM4_Y355]
Not fulfilled

Check this sequence for phosphorylation enrichment at or above 0.6: QRKPSYNQLAS [BRCA2_Y71]
Not fulfilled

Check this sequence for phosphorylation enrichment at or above 0.6: SDPIVYTLENI [EMR1_Y534_I533V]
Fulfilled

Check this sequence for phosphorylation enrichment at or above 0.6: GEHSIYSTVNN [CD55_Y266_C267S]
Fulfilled

Check this sequence for phosphorylation enrichment at or above 0.6: QRRFVYFFSFL [PTEN_Y176_YF]
Not fulfilled

Check this sequence for phosphorylation enrichment at or above 0.6: SFLFRYADDSF [RAB3C_Y50]
Not fulfilled

Check this sequence for phosphorylation enrichment at or above 0.6: VKPENYRRPDI [VHL_Y175_L178P]
Not fulfilled

Check this sequence for phosphorylation enrichment at or above 0.6: FLNSIYKSRDE [ROS1_Y2227]
Not fulfilled

Check this sequence for phosphorylation enrichment at or above 0.6: TVFENYVADIK [RHOA_Y42_E47K]
Not fulfilled

Check this sequence for phosphorylation enrichment at or above 0.6: TSSGGYRRTPS [ABI1_Y333]
Not fulfilled

Check this sequence for phosphorylation enrichment at or above 0.6: LIYTNYEVGKD [GSTP1_Y112_A114V]
Fulfilled

Check this sequence for phosphorylation enrichment at or above 0.6: PTQLPYDHKWK [KIT_Y578_E583K]
Not fulfilled

Check this sequence for phosphorylation enrichment at or above 0.6: LSGFGYRLSDQ [PDCD6_Y124]
Not fulfilled

Check this sequence for phosphorylation enrichment at or above 0.6: RTTIHYNYMCN [TP53_Y234_C229R]
Fulfilled

Check this sequence for phosphorylation enrichment at or above 0.6: SSKILYHIIKG [CDH17_Y489]
Not fulfilled

Check this sequence for phosphorylation enrichment at or above 0.6: RLQEDYDHSYY [ESD_Y258_G257D]
Fulfilled

Check this sequence for phosphorylation enrichment at or above 0.6: LSIDRYHAIVF [NPSR1_Y147_YF]
Fulfilled

Check this sequence for phosphorylation enrichment at or above 0.6: CTTIHYNYMCI [TP53_Y234_N239I]
Not fulfilled

Check this sequence for phosphorylation enrichment at or above 0.6: HYPDVYAREQL [ALX3_Y181]
Fulfilled

Check this sequence for phosphorylation enrichment at or above 0.6: EKQARYEIVVE [CDH5_Y223]
Not fulfilled

Check this sequence for phosphorylation enrichment at or above 0.6: EKKDIYKAGEQ [CFH_Y1008_V1007I]
Not fulfilled

Check this sequence for phosphorylation enrichment at or above 0.6: GIVEDYRPPFY [ACVRL1_Y421]
Not fulfilled

Check this sequence for phosphorylation enrichment at or above 0.6: NYCPGYNNFYN [USH2A_Y467_R464C]
Fulfilled

Check this sequence for phosphorylation enrichment at or above 0.6: ALSDGYWVVSN [TPP1_Y459]
Not fulfilled

Check this sequence for phosphorylation enrichment at or above 0.6: SQSPHYFRSGR [GPATCH8_Y1038]
Not fulfilled

Check this sequence for phosphorylation enrichment at or above 0.6: ENFSEYQEISV [HEMGN_Y150_A154S]
Fulfilled

Check this sequence for phosphorylation enrichment at or above 0.6: NTYEKYWPFYQ [GATM_Y103]
Fulfilled

Check this sequence for phosphorylation enrichment at or above 0.6: HDRNTYEKFLE [TF_Y666_G671E_YF]
Fulfilled

Check this sequence for phosphorylation enrichment at or above 0.6: DLGIQYKVLKP [CTNNA1_Y177_A179V]
Not fulfilled

Check this sequence for phosphorylation enrichment at or above 0.6: NLNGKYFKPRA [ANGPTL3_Y417_N418Y_YF]
Not fulfilled

Check this sequence for phosphorylation enrichment at or above 0.6: QDEHGYIFRCF [HSPB1_Y133_S135F]
Fulfilled

Check this sequence for phosphorylation enrichment at or above 0.6: NVFGNYNNQSS [HNRNPA1_Y318_D314V]
Not fulfilled

Check this sequence for phosphorylation enrichment at or above 0.6: AGQEKYSAMRD [HRAS_Y64_E63K]
Not fulfilled

Check this sequence for phosphorylation enrichment at or above 0.6: KKHIPYKEHKS [CSNK1G1_Y205_R206K]
Fulfilled

Check this sequence for phosphorylation enrichment at or above 0.6: FSCLPYRRLAY [SLC52A2_Y305_G306R]
Fulfilled

Check this sequence for phosphorylation enrichment at or above 0.6: TQPSPYAVFRF [RPGRIP1_Y823_YF]
Fulfilled

Check this sequence for phosphorylation enrichment at or above 0.6: YYHCTYKQRMI [CLEC12A_Y242_K244Q]
Fulfilled

Check this sequence for phosphorylation enrichment at or above 0.6: RMDGKYACSYT [FLNB_Y704_T703K]
Fulfilled

Check this sequence for phosphorylation enrichment at or above 0.6: RTVPLYESPRK [DDB1_Y718]
Fulfilled

Check this sequence for phosphorylation enrichment at or above 0.6: ASMAKYFASGI [ACADSB_Y372_E376G_YF]
Not fulfilled

Check this sequence for phosphorylation enrichment at or above 0.6: HEGKIYEYNQV [ZNF665_Y162]
Fulfilled

Check this sequence for phosphorylation enrichment at or above 0.6: TSESSYYKSLN [NGEF_Y288_A286S]
Not fulfilled

Reference source: the supplement of paper PMC10065799
